meta.source: patent US20120214862A1

System: human Factor 7 mRNA
Assay explanation: Antisense inhibition of human Factor 7 mRNA in HepB3 cells, lipofectin, 50 nM, real-time RT-PCR
Format: cell-based
Condition: Example 1; HepB3 cells, lipofectin, 50 nM, ~24 h, relative to untreated control cells
In the oligonucleotide strings, read from the 5' end, every base follows the letter of its sugar. An asterisk marks phosphorothioate; unmarked linkages are phosphodiester. Other units and linkages are bracketed, terminal groups are in braces. A string of capitals states the bases alone. e = 2'-O-(2-methoxyethyl) (MOE); [5mC] = 5-methylcytosine; d = 2'-deoxy (DNA)
Outcome measure: % Inhibition (human Factor 7 mRNA) (%)
Quick note: give the figure in %, leave out the unit.

Use these answered entries as a reference point.
407961 (antisense eA*eA*eG*eT*eA*dG*dA*dT*dG*dA*dT*dG*d[5mC]*d[5mC]*dT*eG*eA*eG*eT*eG) [compound 407961]: 34
407927 (antisense eA*eG*eG*eT*eA*dA*dG*dG*dA*dG*dG*d[5mC]*dT*d[5mC]*dA*eG*e[5mC]*eT*eG*eG) [compound 407927]: 55
407640 (antisense eG*e[5mC]*eA*eT*eG*dA*dG*d[5mC]*dT*dT*dT*dT*dG*d[5mC]*dA*eG*e[5mC]*e[5mC]*eA*e[5mC]) [compound 407640]: 79
407632 (antisense eT*e[5mC]*e[5mC]*eG*eT*dT*d[5mC]*dG*dG*dG*d[5mC]*dA*dG*dG*d[5mC]*eA*eG*eA*eG*eG) [compound 407632]: 46
407637 (antisense eG*eT*eA*e[5mC]*eT*dG*dG*dG*dA*dG*dA*d[5mC]*d[5mC]*d[5mC]*dT*eG*eG*eT*eG*eT) [compound 407637]: 71

*Q* Supply measured % Inhibition (human Factor 7 mRNA) of 407933 (antisense eT*eG*eA*eT*eA*dA*dT*dG*dG*dA*dT*dA*dA*dG*dA*eA*e[5mC]*e[5mC]*eA*eG) [compound 407933] in your reply.
*A* 58

*Q* Return the recorded % Inhibition (human Factor 7 mRNA) value; entry: 407638 (antisense eG*e[5mC]*e[5mC]*eA*e[5mC]*dT*d[5mC]*dG*dA*dT*dG*dT*dA*d[5mC]*dT*eG*eG*eG*eA*eG) [compound 407638]
*A* 0

*Q* Fill in reported % Inhibition (human Factor 7 mRNA) for this entry: 407895 (antisense e[5mC]*eA*e[5mC]*eA*e[5mC]*dA*dG*dA*dT*d[5mC]*dA*dG*d[5mC]*dT*dG*eG*eT*e[5mC]*eA*eT) [compound 407895]
*A* 72

*Q* Write down % Inhibition (human Factor 7 mRNA) measured for item 407913 (antisense eG*eA*eT*eG*e[5mC]*d[5mC]*d[5mC]*dG*dT*d[5mC]*dA*dG*dG*dT*dA*e[5mC]*e[5mC]*eA*e[5mC]*eG) [compound 407913]
*A* 74

*Q* Let me know recorded % Inhibition (human Factor 7 mRNA) for 407615 (antisense eG*eA*e[5mC]*eA*e[5mC]*d[5mC]*d[5mC]*d[5mC]*dG*dT*d[5mC]*dT*dG*d[5mC]*d[5mC]*eA*eG*e[5mC]*eA*eG) [compound 407615] , thanks.
*A* 65

*Q* Identify % Inhibition (human Factor 7 mRNA) associated with the substance 407613 (antisense eT*eG*e[5mC]*eT*e[5mC]*dA*d[5mC]*dA*dG*d[5mC]*d[5mC]*dG*d[5mC]*d[5mC]*dG*eT*eT*e[5mC]*eT*e[5mC]) [compound 407613]
*A* 66

*Q* Return the recorded % Inhibition (human Factor 7 mRNA) value; entry: 407654 (antisense e[5mC]*e[5mC]*eA*e[5mC]*eT*dG*d[5mC]*dA*dG*d[5mC]*d[5mC]*dA*dG*dG*dG*e[5mC]*e[5mC]*eT*eG*eG) [compound 407654]
*A* 34

*Q* Assign % Inhibition (human Factor 7 mRNA) to the following record: 407936 (antisense eG*eG*e[5mC]*eA*eT*dT*d[5mC]*dG*d[5mC]*d[5mC]*dA*d[5mC]*d[5mC]*dA*dT*eG*e[5mC]*eA*eT*eG) [compound 407936]
*A* 91

*Q* Fill in % Inhibition (human Factor 7 mRNA) for record 407940 (antisense eT*eG*eT*eG*eA*dA*dG*d[5mC]*dT*dG*dG*dG*dA*dA*dG*e[5mC]*eA*eG*eG*eT) [compound 407940]
*A* 62

*Q* For the substance 407928 (antisense e[5mC]*eT*eT*eG*eG*d[5mC]*dT*dG*dA*dA*dG*dG*dG*dA*dG*eG*eT*eA*eA*eG) [compound 407928] , give its reported % Inhibition (human Factor 7 mRNA).
*A* 55

*Q* Report % Inhibition (human Factor 7 mRNA), nothing else, for this substance: 407934 (antisense e[5mC]*eT*eG*eA*eA*dG*dT*dG*dA*dA*dG*dA*dT*dG*dA*eT*eA*eA*eT*eG) [compound 407934]
*A* 45
